- target or system: Grb2 SH2 (UniProt P62993)
- Sequence (P62993 whole entry, looked up, the tested form may be a part): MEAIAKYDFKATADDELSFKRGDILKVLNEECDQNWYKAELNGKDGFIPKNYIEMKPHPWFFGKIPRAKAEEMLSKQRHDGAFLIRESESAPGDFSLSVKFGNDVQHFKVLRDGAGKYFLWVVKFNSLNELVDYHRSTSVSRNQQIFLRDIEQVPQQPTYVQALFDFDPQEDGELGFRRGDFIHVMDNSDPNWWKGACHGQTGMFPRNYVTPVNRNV
- method notes: SH2 binding enrichment of the phosphorylated peptide, bacterial display (enrichment ratio); higher = better substrate or ligand; peptides without Tyr show the background;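 further: peptide library displayed on the E. coli surface as eCPX fusions, selected cells deep-sequenced, score is each peptide's frequency after selection divided by its frequency in the input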
recorded metric: SH2 binding enrichment
// return a plain number; no unit text

QEIATYRRLLE [KRT14_Y415]    0.862
PESILYRKFTT [NTRK1_Y701]    0.724
GPQGFYSNKLV [PTPN14_Y506_V505F]    0.792
LLQAEYWHDPI [PPT1_Y185_V181L]    0.805
DSIRDYEDGTE [CLNS1A_Y214_M218T]    0.829

Lookup: Requested read-out: SH2 binding enrichment. Entry: IGEGTYRQVFK [CDK13_Y716_G717R_YF]
Found: 0.732

Lookup: Requested read-out: SH2 binding enrichment. Entry: PVKDPYVMFPQ [PLEKHG2_Y489]
Found: 0.569

Lookup: Requested read-out: SH2 binding enrichment. Entry: LYEDCYLLGTS [ASS1_Y87_R86C]
Found: 0.933

Lookup: Requested read-out: SH2 binding enrichment. Entry: IEELTYIIKQD [STX5_Y137]
Found: 0.712

Lookup: Requested read-out: SH2 binding enrichment. Entry: QITQVCGFFDE [PPP2CA_Y127_Y127C_YF]
Found: 1.03

Lookup: Requested read-out: SH2 binding enrichment. Entry: TDLAFYLVRKG [ASL_Y376_YF]
Found: 1.07

Lookup: Requested read-out: SH2 binding enrichment. Entry: WAAQRYGRELR [BAD_Y110]
Found: 0.758

Lookup: Requested read-out: SH2 binding enrichment. Entry: HKANEYYPVVI [ADAMTS18_Y764_L769I]
Found: 0.665

Lookup: Requested read-out: SH2 binding enrichment. Entry: EAGKVYLKAAM [CBFB_Y96_P100A]
Found: 0.893

Lookup: Requested read-out: SH2 binding enrichment. Entry: DLEKTYNTFRS [B4GALNT2_Y538_A533D_YF]
Found: 0.846

Lookup: Requested read-out: SH2 binding enrichment. Entry: AKKKMYSRKTK [AGXT_Y231]
Found: 0.638

Lookup: Requested read-out: SH2 binding enrichment. Entry: FLTLHYDAKPQ [ANG_Y38_Q36L]
Found: 0.783

Lookup: Requested read-out: SH2 binding enrichment. Entry: WGTAEYDSVVA [MAP1A_Y1883]
Found: 0.893

Lookup: Requested read-out: SH2 binding enrichment. Entry: FMYKVYSDPQP [FGFR1_Y280_C277Y]
Found: 0.8

Lookup: Requested read-out: SH2 binding enrichment. Entry: LPENPYHSRPR [NDUFA8_Y142]
Found: 1.03

Lookup: Requested read-out: SH2 binding enrichment. Entry: KVPAIYGVGTR [CPS1_Y162_D165G]
Found: 0.948
